Cited source: patent USRE47302E1

The following molecules are shown together with reported IC50 values.
- tested_system: immunoproteasome subunit LMP7 (Homo sapiens, UniProt P28062)
- Construct: Lysate from the human acute lymphoblastic leukemia cell line, MOLT-4; endogenous in cells; host or cells: MOLT-4
- measurement_notes: Proteasome active-site ELISA (ProCISE), LMP7, MOLT-4 lysate
- Assay type: biochemical
- assay_conditions: read-out: ProCISE LMP7 MOLT4 lysate Hu 1 h CONT: IC50, 1 h continuous treatment, 25° C.
Note: unit nM is implicit; provide only the numeric part.

Data request: What value of measured IC50 is listed for COc1ccc(C[C@H](NC(=O)[C@@H](C)NC(=O)C2CCCCC2)C(=O)N[C@@H](Cc2ccccc2)C(=O)[C@@]2(C)CO2)cc1 [Compound C-1188] ?
Data returned: 29.2

Data request: What value of measured IC50 is listed for C[C@H](NC(=O)CN1CCOCC1)C(=O)N[C@@H](Cc1ccncc1)C(=O)N[C@@H](Cc1ccccc1)C(=O)[C@@]1(C)CO1 [Compound C-1171] ?
Data returned: 51

Data request: What value of measured IC50 is listed for COc1ccc(C[C@H](NC(=O)[C@H](C)NC(=O)NN2CCOCC2)C(=O)N[C@@H](Cc2ccccc2)C(=O)[C@@]2(C)CO2)cc1 [Compound C-1178] ?
Data returned: 510
